Reference source: ChEMBL document CHEMBL4177624

Tested on: SK-BR-3
Assay: Antiproliferative activity against human SKBR3 cells after 72 hrs by MTT assay
Type: functional, cell-based
Details: SK-BR-3, 72 h
measured property: IC50 (µM)

// known answers, use as guide
# structure smiles string, measured property, unit abbrev, experimental value
data = [
    ("C[C@@H]1CC[C@@]2(OC1)O[C@H]1C[C@H]3[C@@H]4CC[C@H]5C[C@@H](OC(=O)c6ccc(F)cc6)CC[C@]5(C)[C@H]4CC(=O)[C@]3(C)[C@H]1[C@@H]2C", "IC50", "µM", 36),
    ("C[C@@H]1CC[C@@]2(OC1)O[C@H]1C[C@H]3[C@@H]4CC[C@H]5C[C@@H](O)CC[C@]5(C)[C@H]4C/C(=N\\NC(=O)Nc4cccc(C(F)(F)F)c4)[C@]3(C)[C@H]1[C@@H]2C", "IC50", "µM", 15.7),
    ("C[C@@H]1CC[C@@]2(OC1)O[C@H]1C[C@H]3[C@@H]4CC[C@H]5C[C@@H](O)CC[C@]5(C)[C@H]4C/C(=N\\NC(=O)Nc4ccc(Cl)cc4)[C@]3(C)[C@H]1[C@@H]2C", "IC50", "µM", 9),
    ("C[C@@H]1CC[C@@]2(OC1)O[C@H]1C[C@H]3[C@@H]4CC[C@H]5C[C@@H](O)CC[C@]5(C)[C@H]4C/C(=N\\NC(=S)Nc4ccc5c(c4)OCO5)[C@]3(C)[C@H]1[C@@H]2C", "IC50", "µM", 6.2),
]

[A] Cc1ccc(NC(=S)N/N=C2\C[C@H]3[C@@H](CC[C@H]4C[C@@H](O)CC[C@@]43C)[C@@H]3C[C@@H]4O[C@]5(CC[C@@H](C)CO5)[C@@H](C)[C@@H]4[C@@]23C)cc1
[B] C[C@@H]1CC[C@@]2(OC1)O[C@H]1C[C@H]3[C@@H]4CC[C@H]5C[C@@H](O)CC[C@]5(C)[C@H]4C/C(=N\NC(=S)Nc4ccccc4C(F)(F)F)[C@]3(C)[C@H]1[C@@H]2C
[C] C[C@@H]1CC[C@@]2(OC1)O[C@H]1C[C@H]3[C@@H]4CC[C@H]5C[C@@H](O)CC[C@]5(C)[C@H]4C/C(=N\NC(=S)Nc4ccc(Cl)cc4)[C@]3(C)[C@H]1[C@@H]2C
Exercise: Sort these molecules on IC50 so the largest reading comes first. Enter labels, ranked according to the request.
Key: C, A, B

###

System: SK-BR-3
Assay: Antiproliferative activity against human SKBR3 cells after 72 hrs by MTT assay
Assay type: functional, cell-based
Details: SK-BR-3, 72 h
pIC50: −log10 of the molar value.
measured property: pIC50

// known answers, use as guide
# structure smiles string, pIC50
records = [
    ("C[C@@H]1CC[C@@]2(OC1)O[C@H]1C[C@H]3[C@@H]4CC[C@H]5C[C@@H](O)CC[C@]5(C)[C@H]4C/C(=N\\NC(=S)Nc4cc(C(F)(F)F)cc(C(F)(F)F)c4)[C@]3(C)[C@H]1[C@@H]2C", 5.07),
    ("C[C@@H]1CC[C@@]2(OC1)O[C@H]1C[C@H]3[C@@H]4CC[C@H]5C[C@@H](O)CC[C@]5(C)[C@H]4C/C(=N\\NC(=S)Nc4ccc(Oc5ccccc5)cc4)[C@]3(C)[C@H]1[C@@H]2C", 4.54),
    ("C[C@@H]1CC[C@@]2(OC1)O[C@H]1C[C@H]3[C@@H]4CC[C@H]5C[C@@H](O)CC[C@]5(C)[C@H]4C/C(=N\\NC(=S)Nc4ccc(C(F)(F)F)cc4)[C@]3(C)[C@H]1[C@@H]2C", 5.40),
    ("Cc1cccc(C)c1NC(=S)N/N=C1\\C[C@H]2[C@@H](CC[C@H]3C[C@@H](O)CC[C@@]32C)[C@@H]2C[C@@H]3O[C@]4(CC[C@@H](C)CO4)[C@@H](C)[C@@H]3[C@@]12C", 5.54),
    ("C[C@@H]1CC[C@@]2(OC1)O[C@H]1C[C@H]3[C@@H]4CC[C@H]5C[C@@H](O)CC[C@]5(C)[C@H]4C/C(=N\\NC(=S)Nc4ccccc4)[C@]3(C)[C@H]1[C@@H]2C", 5.04),
]

[P] Cc1ccccc1NC(=S)N/N=C1\C[C@H]2[C@@H](CC[C@H]3C[C@@H](O)CC[C@@]32C)[C@@H]2C[C@@H]3O[C@]4(CC[C@@H](C)CO4)[C@@H](C)[C@@H]3[C@@]12C
[Q] Cc1ccc(S(=O)(=O)NC(=O)N/N=C2\C[C@H]3[C@@H](CC[C@H]4C[C@@H](O)CC[C@@]43C)[C@@H]3C[C@@H]4O[C@]5(CC[C@@H](C)CO5)[C@@H](C)[C@@H]4[C@@]23C)cc1
[R] C[C@@H]1CC[C@@]2(OC1)O[C@H]1C[C@H]3[C@@H]4CC[C@H]5C[C@@H](O)CC[C@]5(C)[C@H]4C/C(=N\NC(=S)Nc4ccccc4Cl)[C@]3(C)[C@H]1[C@@H]2C
[S] COc1ccc(NC(=S)N/N=C2\C[C@H]3[C@@H](CC[C@H]4C[C@@H](O)CC[C@@]43C)[C@@H]3C[C@@H]4O[C@]5(CC[C@@H](C)CO5)[C@@H](C)[C@@H]4[C@@]23C)cc1
Exercise: Would you mind ranking these compounds by ascending pIC50? Enter labels, ranked according to the request.
Key: Q, S, R, P
(Q: 4.51, S: 4.94, R: 5.24, P: 5.64)
